The measured values listed here are drawn from patent US10941182.

- Target under test: T1, rat APJ receptor (rat, UniProt Q9JHG3 1-377)
- T1 sequence (looked up): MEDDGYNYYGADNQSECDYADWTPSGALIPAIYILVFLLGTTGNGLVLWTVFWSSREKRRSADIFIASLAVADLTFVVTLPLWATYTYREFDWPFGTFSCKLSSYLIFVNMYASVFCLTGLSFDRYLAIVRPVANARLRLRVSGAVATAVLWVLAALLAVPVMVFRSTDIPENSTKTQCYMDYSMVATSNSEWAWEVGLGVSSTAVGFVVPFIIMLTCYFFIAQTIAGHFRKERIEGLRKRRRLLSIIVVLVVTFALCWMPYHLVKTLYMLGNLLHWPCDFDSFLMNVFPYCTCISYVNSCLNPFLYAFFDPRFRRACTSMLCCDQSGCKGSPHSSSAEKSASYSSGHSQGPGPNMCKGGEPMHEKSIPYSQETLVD
- Test protocol: cell-based or functional assay
Starred links: 1 amine or outer side, 2 acyl side, 3 side chain; linkers in the order of their positions; H or OH if unused. Non-standard residues stand in square brackets, D forms with d. *: point of attachment. Oic = O=C(O)[C@@H]1C[C@@H]2CCCC[C@@H]2N1; Phe(4-Cl) = N[C@@H](Cc1ccc(Cl)cc1)C(=O)O; γGlu = O=C(O)[C@H](CCC(=O)[*:2])N[*:1]; NMeR = CN[C@@H](CCCNC(=N)N)C(=O)O; Tridecanoyl = CCCCCCCCCCCCC(=O)*; Nle = CCCC[C@H](N)C(=O)O; AEEA = NCCOCCOCC(=O)O; BLeu = β-leucine

Binder: XXXQRPRLSHKGPXPF ({TDA}[AC4Abu][Aeea][Aeea]Q[hArg]P[hArg]LSHKGP[Nle]P[4-Cl-F]{COOH}) [Apelin polypeptide SEQ ID NO: 357]
EC50 Rat APJ Receptor (GTPγS assay), nM: 0.24
--
Binder: XXXQRPRLSHKGPXPF ({TDA}[AC4Abu][Aeea][Aeea]QRP[NMeArg]L[aMeS]HKGP[Nle]P[4-Cl-F]{COOH}) [Apelin polypeptide SEQ ID NO: 468]
EC50 Rat APJ Receptor (GTPγS assay), nM: 0.165
--
Binder: Tridecanoyl-[γGlu][AEEA][AEEA]QR[NMeR][BLeu]SHKG[Oic][Nle]P[Phe(4-Cl)]-OH [Apelin polypeptide SEQ ID NO: 447]
EC50 Rat APJ Receptor (GTPγS assay), nM: 14.8
